- Tested on: Drosophila S2 cl14 SmoIP sensor cells;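 note: flow cytometry read-out as median GFP intensity of gated cells, compounds added 30 min before Hh-conditioned or mock medium, mock-treated cells serving as unstimulated baseline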
- Test name: normalized SmoIP GFP fluorescence (untreated unstimulated = 0%, untreated Hh-stimulated = 100%); higher = more Smo activation sensor fluorescence
- Test parameters: stimulation: mock conditioned medium (-Hh); compound concentration: 2 uM; 24 h
Measurement type: normalized SmoIP GFP fluorescence (%)
Give bare numbers, in %.

What the record says about `Cn1cc(-c2cnn3c(N)c(Br)c([C@@H]4CCCNC4)nc23)cn1` : normalized SmoIP GFP fluorescence is 5.65

Given item COCCCOc1cc(C[C@@H](C[C@H](N)[C@@H](O)C[C@H](C(=O)NCC(C)(C)C(N)=O)C(C)C)C(C)C)ccc1OC [Aliskiren-hemifumarate] , the value recorded as its normalized SmoIP GFP fluorescence is -8.59

Lab note: each compound below needs its normalized SmoIP GFP fluorescence filled in.
1. Cc1ccc(N(CC2=NCCN2)c2cccc(O)c2)cc1 [phentolamine-mesilate]
2. C=C[C@@]1(C)CC(=O)[C@]2(O)[C@@]3(C)[C@@H](O)CCC(C)(C)[C@@H]3[C@H](O)[C@H](OC(C)=O)[C@@]2(C)O1 [forskolin]
3. C[C@H](NC(=O)Cc1cc(F)cc(F)c1)C(=O)N[C@H](C(=O)OC(C)(C)C)c1ccccc1
4. O=C(O)C1(Cc2cccc(Nc3nccs3)n2)CCC(Oc2cccc(Cl)c2F)CC1 (centres undefined)
5. O=c1ncccn1[C@@H]1O[C@H](CO)[C@@H](O)[C@H]1O [zebularine]
6. OCCn1cc(-c2cnc3nnn(Cc4ccc5ncccc5c4)c3n2)cn1

Result:
[-15.3, -10, 4.93, 24.4, -3.16, 1.03]

Below are 5 compounds. Give each one its normalized SmoIP GFP fluorescence.
1. CNC(=O)c1ccc(N2C(=S)N(c3ccc(C#N)c(C(F)(F)F)c3)C(=O)C2(C)C)cc1F
2. CC(=O)O[C@H]1CC[C@@]2(C)C(=CCC3C2CC[C@]2(C)C(c4cccnc4)=CCC32)C1 (some centres undefined) [Abiraterone-Acetate-CB7630]
3. C[C@@H]1CN(CC(=O)Nc2ccc3c(c2)Cc2cccc(-c4cc(=O)cc(N5CCOCC5)o4)c2S3)C[C@H](C)O1
4. COc1ccc(CC(C)NCC(O)c2ccc(O)c(NC=O)c2)cc1 (centres undefined) [formoterol-hemifumarate]
5. C1=C/COCc2cc(ccc2OCCN2CCCC2)Nc2nccc(n2)-c2cccc(c2)COC/1 [pacritinib-sb1518]

Result:
1. 4.03
2. -12.7
3. 5.98
4. -8.77
5. 1.72

Answer for every listed entry: what is its normalized SmoIP GFP fluorescence? The entries follow.
1. CNC(=O)c1cc(Oc2ccc(NC(=O)Nc3cc(C(C)(C)C)nn3-c3ccc4ncccc4c3)c(F)c2)ccn1
2. O=C(NOCC(O)CO)c1cc(Br)c(F)c(F)c1Nc1ccc(I)cc1F (centres undefined)
3. C[C@@H](c1ncncc1F)[C@](O)(Cn1cncn1)c1ccc(F)cc1F [Voriconazole]
4. NC(=O)c1cn(Cc2c(F)cccc2F)nn1 [Rufinamide]

Result:
1. 0.605
2. 16.8
3. 1.57
4. 1.89

List reported normalized SmoIP GFP fluorescence for each of these compounds:
1. CCCC(C)NC(=O)c1ccc(Cl)c(Cl)c1 (centres undefined)
2. Cc1[nH]c2ccccc2c1CCNCc1ccc(/C=C/C(=O)NO)cc1
3. CN1CCN(S(=O)(=O)c2ccc(-c3cnc(N)c(C(=O)Nc4cccnc4)n3)cc2)CC1
4. CCCCc1nc2cc(/C=C/C(=O)NO)ccc2n1CCN(CC)CC
5. CCCCOc1ccc(CC(=O)NO)cc1 [bufexamac]

Result:
-4.7
81.3
1.21
34.2
-3.05
